Tested on: Human papillomavirus type 1a protein E7 (residues 44-93)
experiment_notes: small molecules binding HPV E7 44-93 – biochemical, small-molecule microarray, residues 44-93, 635 nm fluorescence, primary screen (AID 1108);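 also: E7 fragment applied at 1 µg/mL in TBST for 1 h at 4 C; score combines spot fluorescence with its signal to noise ratio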
condition_notes: fluorescence 635 nm, higher = more signal
Item-by-item account of composite z-score
result_type: composite z-score

| compound | value_observed |
| --- | --- |
| CCOC(=O)C[C@H]1[C@H](OC(=O)c2cc3ccccc3oc2=O)[C@@H](NC(=O)c2ccc3ccccc3n2)c2cc(OCCCO)ccc2N1C(=O)c1ccc2ccccc2n1 | 0.412 |
| [N-]=[N+]=NCc1ccccc1[C@H]1OC(c2ccc(OCCCO)cc2)=N[C@@]1(Cc1ccccc1)C(N)=O | 1.44 |
| COCCOC(=O)N1C(=O)[C@@]2(c3cc(C#CCCO)ccc31)[C@H](C(=O)NC[C@H](O)c1ccccc1)[C@H]1C(=O)O[C@H](c3ccccc3)[C@H](c3ccccc3)N1[C@@H]2c1ccccc1OCCO | 1.43 |
| COc1cc2c(cc1OC)CN(C(=O)[C@@H]1[C@H]3C(=O)O[C@H](c4ccccc4)[C@H](c4ccccc4)N3[C@H](c3ccc(OCCO)cc3)[C@@]13C(=O)Nc1ccc(C#CCCO)cc13)CC2 | 1.44 |
| C[N+](C)(C)CCCCNC(=O)[C@H]1C[C@H]2C(=O)NCC(=O)N2[C@H]1c1ccc(O)cc1 | 0.0571 |
| COC(=O)[C@@]1(Cc2ccc(OC)cc2)[C@H]2c3cc(C(=O)N(C)C)n(CCF)c3C[C@H]2CN1C(=O)c1ccccc1 | 0.528 |
| CCN(CC)c1ccc(N2CC=CC34O[C@@H]5/C=C\CCCOC(=O)C5[C@H]3C(=O)N(CCCCCCO)[C@@H]4C2=O)cc1 (some centres undefined) | -0.117 |
| CCOC(=O)C[C@H]1[C@H](OC(=O)c2ccc(C(=O)c3ccccc3)cc2)[C@@H](NC(=O)C2CCCCC2)c2cc(OCCCO)ccc2N1C(=O)Cc1ccc(OC)cc1 | 0.773 |
| NC(=O)NCC#Cc1ccc2c(c1)[C@]1(C(=O)N2)[C@H](c2ccc(OCCO)cc2)N2[C@H](c3ccccc3)[C@H](c3ccccc3)OC(=O)[C@H]2[C@@H]1C(=O)N1CCN(c2ncccn2)CC1 | 0.833 |
| C=C(CCCC)/C(=C/C[C@H](OC(=O)c1ccncc1)c1ccc(CO)o1)c1cc(C(=O)OC)ccc1OC | -0.0541 |
| CCOC(=O)C[C@H]1[C@H](OC(=O)Cc2ccc3c(c2)OCO3)[C@@H](NC(=O)c2ccccc2)c2cc(OCCCO)ccc2N1C(=O)c1ccc2ccccc2n1 | 0.594 |
| COC(=O)[C@@]1(Cc2ccccc2)[C@H]2c3cc(C(=O)N(C)C)n(Cc4ccc(O)c(OC)c4)c3C[C@H]2CN1C(=O)c1ccccc1 | 1.45 |
| Cc1ccccc1C(O)C1C=CC2C(=O)N(Cc3ccccc3)C(=O)C2N1n1cnnc1 (centres undefined) | 1.29 |
| C=CCC(OC(C)=O)[C@@H]1[C@@H](N(Cc2ccc(-c3ccccc3)cc2)C(=O)Cc2ccc(OC)cc2)c2cc(OCCCO)ccc2N1C(=O)c1ccc(-c2ccccc2)cc1 (some centres undefined) | -0.354 |
| COc1cccc(C)c1NC(=O)O[C@H]1[C@H](OC(=O)Nc2ccccc2)[C@H](OC(=O)Nc2ccccc2)[C@@H](OC)O[C@@H]1CO | 1.3 |
| CO[C@H]1O[C@H](CO)[C@@H](OC(=O)Nc2ccc(C(F)(F)F)cc2)[C@H](OC(=O)Nc2ccccc2)[C@H]1OC(=O)Nc1ccccc1 | 0.69 |
| CCCC=C(CCC)[C@@H](NS(=O)(=O)CC)c1ccccc1 | 1.37 |
| [N-]=[N+]=NCc1ccccc1C[C@@]1(C(=O)NCCN2CCOCC2)N=C(c2ccc(OCCCO)cc2)O[C@@H]1c1ccccc1CN=[N+]=[N-] | 1.42 |
| O=C1O[C@H](c2ccccc2)[C@H](c2ccccc2)N2[C@H]1[C@@H](C(=O)N1CCN(c3ncccn3)CC1)[C@]1(C(=O)Nc3ccc(C#CCCO)cc31)[C@H]2c1ccccc1OCCO | 1.02 |
